Entry source: patent US20170129940A1

# Assayed target: hCMV gB (expressed in HEK293T cells) (human cytomegalovirus, UniProt P06473 32-906)
# Sequence (P06473 32-906 limits assumed): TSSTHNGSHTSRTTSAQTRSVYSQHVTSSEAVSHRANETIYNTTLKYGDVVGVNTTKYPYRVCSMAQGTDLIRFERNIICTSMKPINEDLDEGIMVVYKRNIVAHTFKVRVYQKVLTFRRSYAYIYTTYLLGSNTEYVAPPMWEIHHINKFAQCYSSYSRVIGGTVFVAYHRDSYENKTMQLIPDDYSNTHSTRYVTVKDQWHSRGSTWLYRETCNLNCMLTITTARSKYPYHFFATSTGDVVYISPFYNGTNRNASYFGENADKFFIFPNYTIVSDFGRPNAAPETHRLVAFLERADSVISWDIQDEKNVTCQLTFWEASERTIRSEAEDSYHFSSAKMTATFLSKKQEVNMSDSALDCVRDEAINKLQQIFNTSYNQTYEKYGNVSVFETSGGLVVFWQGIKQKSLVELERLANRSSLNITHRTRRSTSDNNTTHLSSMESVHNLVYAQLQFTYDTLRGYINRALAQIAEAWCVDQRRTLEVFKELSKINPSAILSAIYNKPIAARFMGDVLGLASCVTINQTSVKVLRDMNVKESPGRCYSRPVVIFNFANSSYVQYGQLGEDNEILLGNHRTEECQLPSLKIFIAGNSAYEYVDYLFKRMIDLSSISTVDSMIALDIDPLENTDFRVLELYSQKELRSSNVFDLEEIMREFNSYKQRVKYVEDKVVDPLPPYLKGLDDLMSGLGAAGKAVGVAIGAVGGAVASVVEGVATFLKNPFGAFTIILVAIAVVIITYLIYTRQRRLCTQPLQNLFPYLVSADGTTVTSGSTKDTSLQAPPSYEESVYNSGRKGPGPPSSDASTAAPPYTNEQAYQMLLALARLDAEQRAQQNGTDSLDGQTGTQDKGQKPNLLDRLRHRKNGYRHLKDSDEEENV
# Test protocol: cell-based or functional assay
Kindly supply the reported 90% Neutralization ARPE values for the records listed here.
Respond with the bare value in µg/mL.

input: Specify measured 90% Neutralization ARPE for 2B11 (antibody, V domains shown, human IgG; also called 2B11-biotin) VH: AVRLVESGGGLAQPGRSLRLSCQVSGFTFGSYEMNWVRQAPGKGLEWIAYIDFTGSTIYYADSVKGRFTISRNTARNSLYLQMNSLRVEDTAVYYCVRDAGRWGTSWYYFDYWGQGTRVTVSP VL: QSVLTQPPSVSGAPGQRVTISCTGISSNIGAGYDIHWYQQIPGKAPKLLVYGNNNRPSGVPDRFSGSKSGTSVSLAITGLQVEDEADYYCQSYDNSLNGWVFGGGTRLTVL .
output: 0.2

input: Specify measured 90% Neutralization ARPE for 10C6 (antibody, V domains shown, human IgG; also called 10C6-biotin) VH: AVQLVESGGGLAQPGRSLRLSCKVSGFSFSNFEMNWVRQAPGKGLEWIAYIDFTGSTIYYSDSVKGRFTISRDTARNSLYLQMNKLRVEDTAVYYCVRDAGRWGTSWYYFDYWGQGTLVTVSS VL: QSVLTQPPSVSGAPGQRVTISCTGLSSNIGAGYDIHWYQQIPGKAPKLLIYGNNNRPSGVPDRFSGSKSGTSVSLAITGLQAEDEADYYCQSYDSSLNGWVFGGGTRLTVL .
output: 0.2

input: Specify measured 90% Neutralization ARPE for 6B4 (antibody, V domains shown, human IgG; also called 6B4-biotin) VH: QVQLVESGGGVVQPGRSLRLSCAASGFRFNEFNMHWVRQAPGKGLEWVAVISIDGRHKYNADSVEGRFTISRDNSRNTLYLQMNSLRVEDTALYYCVTDGKAVDGFSGILEFWGQGTPVTVST VL: EIVLTQSPATLSLSPGERATLSCWASQSVGGYLAWYQQKPGQAPRLLIYDASIRATGIPARFSGSGSGTHFTLTINSLEPEDFAVYYCQQRNNWPPLTFGGGTKVEIK .
output: 0.15

input: Specify measured 90% Neutralization ARPE for 4H9 (antibody, V domains shown, human IgG; also called 4H9-biotin) VH: AVQLVESGGGLVRPGGSLRLSCAASGFTFSSHEMHWVRQAPGKGLEWLSYIDFTGSIIYYADSVRGRFTISRDNTKKSLFLQMNSLRDEDTALYYCARDGGRWGTSWYYFDYWGQGVLVTVSS VL: QSVLTQPPSVSGAPGQRVTITCTGSSSNFGAGYDGHWYQQLPGTAPKLLIYGSNRPSGVPDRFSGSKSGTSVSLAITGLQADDEADYYCQSYDSSLSAWVFGGGTKLTVL .
output: 0.4

input: Specify measured 90% Neutralization ARPE for 7H3 (antibody, V domains shown, human IgG; also called 7H3-biotin) VH: QVQLVQSGAEVKNPGASVKVSCKASGYTFTDYYIHWVRQAPGQGLEWMGWFNPNSGGTNFVQNFQGRVTMTRDTSISTAYMELSRLRSDDTAMYYCAKDSAKTASAYYGLNFFYYGMDVWGQGTTVTVSS VL: QSVLSQPPSASGTPGQRVTISCSGSSSNIGKNYVYWYQQVPGTAPKLLMFKNNQRPSGVPDRFSGSKSGTSASLAISGLRSEDEADYYCSAWDGSLSRPLFGGGTKVTVL .
output: 0.6

input: Specify measured 90% Neutralization ARPE for 5F1 (antibody, V domains shown, human IgG; also called 5F1-biotin) VH: AVQLVESGGGLAQPGRSLRLSCKVSGFTFSSYEMNWVRQAPGKGLEWIAYIDFTGSTIYYADSVKGRFTISRDTARNSLYLQMNKLRVEDTAVYYCVRDAGRWGTSWYYFDYWGQGTLVTVSS VL: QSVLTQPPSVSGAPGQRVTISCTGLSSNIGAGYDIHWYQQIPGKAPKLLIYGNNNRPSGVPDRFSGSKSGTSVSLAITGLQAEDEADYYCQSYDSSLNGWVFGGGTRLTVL .
output: 0.1
